Values were extracted from PubChem BioAssay AID1963979.

System: 361931-004-R-J1-PDC multicell spheroid viability
assay explanation: Anticancer human tumor 361931-004-R-J1-PDC patient-derived colon adenocarcinoma cell line growth inhibition [PI3K]
condition set: second compound 0.01 µM; first compound 0.1 µM; stronger effect = lower value
reported metric: viability, T/C (%)
Number only, in %; omit the unit.

Enquiry: Enter reported viability, T/C observed with 361931-004-R-J1-PDC multicell spheroid viability for Cn1ncc(Cl)c1-c1cc(C(=O)NC(CN)Cc2cccc(F)c2)sc1Cl (stereo not drawn) + COc1c(OCCCN2CCOCC2)ccc2c3n(c(=NC(=O)c4cnc(N)nc4)nc12)CCN3
Return: 102

Enquiry: Enter reported viability, T/C observed with 361931-004-R-J1-PDC multicell spheroid viability for CC(C)n1nc(-c2ccc3oc(N)nc3c2)c2c(N)ncnc21 + CC(Nc1ccc2c(c1)OCCn1cc(N3C(=O)OCC3C(F)F)nc1-2)C(N)=O
Return: 57.3

Enquiry: Enter reported viability, T/C observed with 361931-004-R-J1-PDC multicell spheroid viability for Cn1nccc1Nc1nccc(-c2ccn(C(CO)c3ccc(Cl)c(F)c3)c(=O)c2)n1 (stereo not drawn) + CC(Nc1ccc2c(c1)OCCn1cc(N3C(=O)OCC3C(F)F)nc1-2)C(N)=O
Return: 105

###

Tested on: 361931-004-R-J1-PDC multicell spheroid viability
assay explanation: Anticancer human tumor 361931-004-R-J1-PDC cell line growth inhibition [PI3K];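 also: spheroids exposed to agents for seven days before readout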
condition set: second compound 0.01 µM; first compound 0.1 µM; stronger effect = lower value
reported metric: viability, T/C

Enquiry: // query viability, T/C value for entry CCN1CCN(Cc2ccc(Nc3ncc(F)c(-c4cc(F)c5nc(C)n(C(C)C)c5c4)n3)nc2)CC1 + COc1c(OCCCN2CCOCC2)ccc2c3n(c(=NC(=O)c4cnc(N)nc4)nc12)CCN3
Return: 85%

Enquiry: // query viability, T/C value for entry CC(Cn1ccc(-c2ccc(C#N)c(Cl)c2)n1)NC(=O)c1cc(C(C)O)[nH]n1 (stereo not given) + CC(Nc1ccc2c(c1)OCCn1cc(N3C(=O)OCC3C(F)F)nc1-2)C(N)=O
Return: 113%

Enquiry: // query viability, T/C value for entry CC(=O)c1c(C)c2cnc(Nc3ccc(N4CCNCC4)cn3)nc2n(C2CCCC2)c1=O + CC(Nc1ccc2c(c1)OCCn1cc(N3C(=O)OCC3C(F)F)nc1-2)C(N)=O
Return: 76.8%

Enquiry: // query viability, T/C value for entry C[C@@H](NC(=O)c1ncnc(N)c1Cl)c1ncc(C(=O)Nc2cc(C(F)(F)F)c(Cl)cn2)s1 + COc1c(OCCCN2CCOCC2)ccc2c3n(c(=NC(=O)c4cnc(N)nc4)nc12)CCN3
Return: 99.9%

Enquiry: // query viability, T/C value for entry C[C@@H](NC(=O)c1ncnc(N)c1Cl)c1ncc(C(=O)Nc2cc(C(F)(F)F)c(Cl)cn2)s1 + CC(Nc1ccc2c(c1)OCCn1cc(N3C(=O)OCC3C(F)F)nc1-2)C(N)=O
Return: 109%

###

System: 361931-004-R-J1-PDC multicell spheroid viability
assay explanation: Anticancer human tumor 361931-004-R-J1-PDC cell line growth inhibition [PI3K];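 also: spheroids exposed to agents for seven days before readout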
condition set: curve of first compound; second compound 0.0316 µM
I'd appreciate it if you could supply pIC50 values for the items below.
pIC50 here: minus log base 10 of the concentration, concentration in moles per litre.

Enquiry: // query pIC50 value for entry Cn1ncc(Cl)c1-c1cc(C(=O)NC(CN)Cc2cccc(F)c2)sc1Cl (stereo unspecified) + CC(Nc1ncnc2nc[nH]c12)c1cc2cccc(Cl)c2c(=O)n1-c1ccccc1
Return: 5.53

Enquiry: // query pIC50 value for entry CCCS(=O)(=O)Nc1ccc(F)c(C(=O)c2c[nH]c3ncc(-c4ccc(Cl)cc4)cc23)c1F + Cc1nc(NC(=O)N2CCCC2C(N)=O)sc1-c1ccnc(C(C)(C)C(F)(F)F)c1
Return: 5.31

Enquiry: // query pIC50 value for entry CCCS(=O)(=O)Nc1ccc(F)c(C(=O)c2c[nH]c3ncc(-c4ccc(Cl)cc4)cc23)c1F + COc1c(OCCCN2CCOCC2)ccc2c3n(c(=NC(=O)c4cnc(N)nc4)nc12)CCN3
Return: 5.35

Enquiry: // query pIC50 value for entry CC(C)n1nc(-c2ccc3oc(N)nc3c2)c2c(N)ncnc21 + COc1c(OCCCN2CCOCC2)ccc2c3n(c(=NC(=O)c4cnc(N)nc4)nc12)CCN3
Return: 7.11

Enquiry: // query pIC50 value for entry CCN1CCN(Cc2ccc(Nc3ncc(F)c(-c4cc(F)c5nc(C)n(C(C)C)c5c4)n3)nc2)CC1 + COc1c(OCCCN2CCOCC2)ccc2c3n(c(=NC(=O)c4cnc(N)nc4)nc12)CCN3
Return: 6.06

Enquiry: // query pIC50 value for entry Cn1ncc(Cl)c1-c1cc(C(=O)NC(CN)Cc2cccc(F)c2)sc1Cl (stereo unspecified) + CC(Nc1ccc2c(c1)OCCn1cc(N3C(=O)OCC3C(F)F)nc1-2)C(N)=O
Return: 6.16

Enquiry: // query pIC50 value for entry CC1(C)CCC(CN2CCN(c3ccc(C(=O)NS(=O)(=O)c4ccc(NCC5CCOCC5)c([N+](=O)[O-])c4)c(Oc4cnc5[nH]ccc5c4)c3)CC2)=C(c2ccc(Cl)cc2)C1 + Cc1nc(NC(=O)N2CCCC2C(N)=O)sc1-c1ccnc(C(C)(C)C(F)(F)F)c1
Return: 5.38

Enquiry: // query pIC50 value for entry CC1(C)CCC(CN2CCN(c3ccc(C(=O)NS(=O)(=O)c4ccc(NCC5CCOCC5)c([N+](=O)[O-])c4)c(Oc4cnc5[nH]ccc5c4)c3)CC2)=C(c2ccc(Cl)cc2)C1 + CC(Nc1ccc2c(c1)OCCn1cc(N3C(=O)OCC3C(F)F)nc1-2)C(N)=O
Return: 5.39

Enquiry: // query pIC50 value for entry CC1(C)CCC(Nc2ncc(C(F)(F)F)c(-c3c[nH]c4c(P(C)(C)=O)c(C#N)ccc34)n2)CN1 (stereo unspecified) + Cc1nc(NC(=O)N2CCCC2C(N)=O)sc1-c1ccnc(C(C)(C)C(F)(F)F)c1
Return: 5.35

###

I'd appreciate it if you could supply pIC50 values for the items below.
Tested on: 361931-004-R-J1-PDC multicell spheroid viability
assay explanation: Anticancer human tumor 361931-004-R-J1-PDC cell line growth inhibition [PI3K];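 also: spheroids exposed to agents for seven days before readout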
condition set: curve of first compound; second compound 1 µM
pIC50: −log10 of the molar value.

Enquiry: // query pIC50 value for entry Cn1cnc2c(F)c(Nc3ccc(Br)cc3Cl)c(C(=O)NOCCO)cc21 + CC(Nc1ccc2c(c1)OCCn1cc(N3C(=O)OCC3C(F)F)nc1-2)C(N)=O
Return: 6.80

Enquiry: // query pIC50 value for entry Cn1ncnc1[C@H]1c2n[nH]c(=O)c3cc(F)cc(c23)N[C@@H]1c1ccc(F)cc1 + Cc1nc(NC(=O)N2CCCC2C(N)=O)sc1-c1ccnc(C(C)(C)C(F)(F)F)c1
Return: < 7.00

Enquiry: // query pIC50 value for entry C[C@@H](NC(=O)c1ncnc(N)c1Cl)c1ncc(C(=O)Nc2cc(C(F)(F)F)c(Cl)cn2)s1 + CC(Nc1ncnc2nc[nH]c12)c1cc2cccc(Cl)c2c(=O)n1-c1ccccc1
Return: < 5.00

Enquiry: // query pIC50 value for entry CCN1CCN(Cc2ccc(Nc3ncc(F)c(-c4cc(F)c5nc(C)n(C(C)C)c5c4)n3)nc2)CC1 + CC(Nc1ncnc2nc[nH]c12)c1cc2cccc(Cl)c2c(=O)n1-c1ccccc1
Return: < 6.00

Enquiry: // query pIC50 value for entry CCCS(=O)(=O)Nc1ccc(F)c(C(=O)c2c[nH]c3ncc(-c4ccc(Cl)cc4)cc23)c1F + CC(Nc1ccc2c(c1)OCCn1cc(N3C(=O)OCC3C(F)F)nc1-2)C(N)=O
Return: 5.76

Enquiry: // query pIC50 value for entry Cn1nccc1Nc1nccc(-c2ccn(C(CO)c3ccc(Cl)c(F)c3)c(=O)c2)n1 (stereo unspecified) + CC(Nc1ncnc2nc[nH]c12)c1cc2cccc(Cl)c2c(=O)n1-c1ccccc1
Return: < 5.00

Enquiry: // query pIC50 value for entry C#Cc1c(F)ccc2cc(O)cc(-c3ncc4c(N5CC6CCC(C5)N6)nc(OCC56CCCN5CC(F)C6)nc4c3F)c12 (stereo unspecified) + Cc1nc(NC(=O)N2CCCC2C(N)=O)sc1-c1ccnc(C(C)(C)C(F)(F)F)c1
Return: < 5.00

Enquiry: // query pIC50 value for entry CC(C)NCC(C(=O)N1CCN(c2ncnc3c2C(C)CC3O)CC1)c1ccc(Cl)cc1 (stereo unspecified) + CC(Nc1ncnc2nc[nH]c12)c1cc2cccc(Cl)c2c(=O)n1-c1ccccc1
Return: 5.38

Enquiry: // query pIC50 value for entry C[C@@H](NC(=O)c1ncnc(N)c1Cl)c1ncc(C(=O)Nc2cc(C(F)(F)F)c(Cl)cn2)s1 + Cc1nc(NC(=O)N2CCCC2C(N)=O)sc1-c1ccnc(C(C)(C)C(F)(F)F)c1
Return: < 5.00

Enquiry: // query pIC50 value for entry CC(=O)c1c(C)c2cnc(Nc3ccc(N4CCNCC4)cn3)nc2n(C2CCCC2)c1=O + COc1c(OCCCN2CCOCC2)ccc2c3n(c(=NC(=O)c4cnc(N)nc4)nc12)CCN3
Return: > 9.50

Enquiry: // query pIC50 value for entry Cn1ncc(Cl)c1-c1cc(C(=O)NC(CN)Cc2cccc(F)c2)sc1Cl (stereo unspecified) + CC(Nc1ccc2c(c1)OCCn1cc(N3C(=O)OCC3C(F)F)nc1-2)C(N)=O
Return: 6.18
